In this section, each of the compounds is paired with its reported hERG current change (%, negative = inhibition) at 10uM.
target: human ether-à-go-go-related gene (hERG) potassium channel (human); assay: primary screen, population patch clamp on CHO cells stably expressing hERG; higher = less effect of the substance;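 note: peak tail current of the secondary pulse compared with the same well before compound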
Sequence (Q12809 whole entry, looked up): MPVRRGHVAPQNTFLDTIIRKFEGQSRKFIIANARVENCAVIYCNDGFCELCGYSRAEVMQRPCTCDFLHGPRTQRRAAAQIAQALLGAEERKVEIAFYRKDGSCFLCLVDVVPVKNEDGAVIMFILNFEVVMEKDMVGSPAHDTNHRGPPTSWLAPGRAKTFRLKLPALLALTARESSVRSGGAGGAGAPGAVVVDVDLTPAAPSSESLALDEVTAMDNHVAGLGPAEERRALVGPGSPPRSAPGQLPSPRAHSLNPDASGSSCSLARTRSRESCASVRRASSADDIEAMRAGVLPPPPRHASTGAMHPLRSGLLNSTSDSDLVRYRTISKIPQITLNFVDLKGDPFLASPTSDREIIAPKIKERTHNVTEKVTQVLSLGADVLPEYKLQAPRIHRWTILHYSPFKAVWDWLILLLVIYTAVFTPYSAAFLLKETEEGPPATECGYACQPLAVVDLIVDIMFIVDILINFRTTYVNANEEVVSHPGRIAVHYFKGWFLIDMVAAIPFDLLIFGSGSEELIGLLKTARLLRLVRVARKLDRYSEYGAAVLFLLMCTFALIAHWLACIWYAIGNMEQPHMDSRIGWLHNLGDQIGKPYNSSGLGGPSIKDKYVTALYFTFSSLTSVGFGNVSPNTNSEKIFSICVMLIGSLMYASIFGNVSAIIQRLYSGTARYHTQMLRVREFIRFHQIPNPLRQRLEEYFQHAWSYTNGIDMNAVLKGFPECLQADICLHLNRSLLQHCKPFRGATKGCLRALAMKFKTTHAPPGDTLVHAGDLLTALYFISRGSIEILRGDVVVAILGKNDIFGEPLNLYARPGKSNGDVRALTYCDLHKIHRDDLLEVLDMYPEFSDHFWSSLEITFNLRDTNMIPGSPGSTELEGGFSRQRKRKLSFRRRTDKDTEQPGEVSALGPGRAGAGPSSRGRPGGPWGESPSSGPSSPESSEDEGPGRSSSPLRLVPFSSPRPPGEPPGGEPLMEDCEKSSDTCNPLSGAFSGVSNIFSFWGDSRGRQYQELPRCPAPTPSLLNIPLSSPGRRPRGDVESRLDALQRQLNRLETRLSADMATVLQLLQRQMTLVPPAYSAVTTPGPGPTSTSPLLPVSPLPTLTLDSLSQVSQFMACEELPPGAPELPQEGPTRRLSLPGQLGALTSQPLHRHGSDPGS
The campaign covered roughly 310,000 compounds. About 14,000 (4.5%) showed an effect of 50% or more. The effect is printed as a negative number. Only a selection was taken, and strong results are over-represented in it overall.
Readout: hERG current change (%, negative = inhibition) at 10uM (%)

- Compound: "NC(=O)c1ccc(NC(=O)CN2CCOCC2)cc1"
  Unit annotation: "%"
  Meas value: 17.9
- Compound: "CCOC(=O)c1c(NC(=O)CSc2nnc(CN3CCOCC3)n2C)sc2c1CCCC2"
  Unit annotation: "%"
  Meas value: -30
- Compound: "CCCCOc1ccc(C(=O)N2CCN(CC(=O)Nc3ccc(C)cc3)CC2)cc1OC"
  Unit annotation: "%"
  Meas value: -47.1
- Compound: "CCOC(=O)c1c(NC(=O)c2ccco2)sc2c1CCCC2"
  Unit annotation: "%"
  Meas value: 4.29
- Compound: "CCO.CCn1c(COc2ccc3c(c2)OCO3)nnc1SCC(=O)O"
  Unit annotation: "%"
  Meas value: -0.394
- Compound: "CCOC(=O)c1c(NC(=O)c2ccccc2C(=O)O)sc2c1CCC2"
  Unit annotation: "%"
  Meas value: -1.15
- Compound: "CCOC(=O)Cc1csc(NC(=O)COc2ccc3c(c2)CCC3)n1"
  Unit annotation: "%"
  Meas value: -1.14
- Compound: "O=C(NCCCc1ccncc1)C1CCC(=O)N(CCc2cccc(F)c2)C1 (centres unmarked)"
  Unit annotation: "%"
  Meas value: -51.8
- Compound: "CCOc1cc(C)c(C(C)C)cc1S(=O)(=O)n1ccc(C)n1"
  Unit annotation: "%"
  Meas value: -29.4
- Compound: "O=C(Nc1ccc(F)cc1F)c1ccco1"
  Unit annotation: "%"
  Meas value: 2.94
- Compound: "COc1ccc(CCNC(=O)CN2CCN(c3ccccc3Cl)CC2)cc1"
  Unit annotation: "%"
  Meas value: -19
- Compound: "Cc1ccc(CNC(=O)COC(=O)CSc2ccc(Br)cc2C)cc1"
  Unit annotation: "%"
  Meas value: 10.9
- Compound: "CCOc1ccc(S(=O)(=O)/N=C(\\N)c2ccccc2)cc1"
  Unit annotation: "%"
  Meas value: -7.03
- Compound: "CCOC(=O)c1c(NC(=O)C(C)N2CCN(C(=O)c3ccco3)CC2)sc2c1CCCC2 (centres unmarked)"
  Unit annotation: "%"
  Meas value: -56.1
- Compound: "O=C(O)C1=C[C@@H](c2ccc(C(F)(F)F)cc2)C[C@@H](OCc2ccc(CO)cc2)O1"
  Unit annotation: "%"
  Meas value: 16.7
- Compound: "Clc1ccc(CNc2nnnn2-c2ccccc2)c(Cl)c1"
  Unit annotation: "%"
  Meas value: 20.7
- Compound: "O=C(NC1CC1)C1=C[C@@H](c2ccc(Br)cc2)C[C@@H](OCc2ccc(CO)cc2)O1"
  Unit annotation: "%"
  Meas value: -56.4
- Compound: "Cc1cccc(OCCCCc2c(C)n[nH]c2C)c1C"
  Unit annotation: "%"
  Meas value: 9.64
- Compound: "O=S1(=O)[C@H]2C[C@@H]3C=C[C@@]2(CN1Cc1ccc(F)cc1)O3"
  Unit annotation: "%"
  Meas value: -25.2
- Compound: "COc1ccccc1N1CCN(C(=O)C2CCCN(S(=O)(=O)c3ccc(C)cc3)C2)CC1 (centres unmarked)"
  Unit annotation: "%"
  Meas value: -38.3
- Compound: "O=C1c2ccccc2C(=O)C1(CO)c1ccc(OC(F)F)cc1"
  Unit annotation: "%"
  Meas value: 18.3
- Compound: "C(=N\\NC1=Nc2cccc3cccc1c23)/c1cccnc1"
  Unit annotation: "%"
  Meas value: -5.08
- Compound: "Cc1ccc(CCNC(=O)C2CCC(=O)N(Cc3cccc(F)c3)C2)cc1 (centres unmarked)"
  Unit annotation: "%"
  Meas value: -4.64
- Compound: "COc1cc2c(C(=O)OCCN(C)C)c(CSc3ccccc3)n(C)c2cc1Br"
  Unit annotation: "%"
  Meas value: 5.67
- Compound: "COc1cc2c(C(=O)N3CCN(C)CC3)c(C)n(-c3ccccc3)c2cc1Br"
  Unit annotation: "%"
  Meas value: -54.7
- Compound: "COC(=O)c1ccc(NC(=O)CN2CCN(CCO)CC2)cc1.Cl"
  Unit annotation: "%"
  Meas value: -5.29
- Compound: "COC(=O)c1ccc(NC(=O)CN2CCCC2)cc1"
  Unit annotation: "%"
  Meas value: 5.33
- Compound: "O=C(NCCCc1ccncc1)C1CCC(=O)N(Cc2cccc(F)c2)C1 (centres unmarked)"
  Unit annotation: "%"
  Meas value: -14.5
- Compound: "O=C(NCCc1cccnc1)C1CCC(=O)N(CCc2cccc(F)c2)C1 (centres unmarked)"
  Unit annotation: "%"
  Meas value: 7.99
- Compound: "CCOc1ccc(NC(=O)CN2CCN(CC(=O)Nc3ccc(C(N)=O)cc3)CC2)cc1"
  Unit annotation: "%"
  Meas value: -72.6
- Compound: "COc1cc2c(C(=O)N3CCOCC3)c(CSc3ccccc3)n(C)c2cc1Br"
  Unit annotation: "%"
  Meas value: -6.35
- Compound: "CC(NC(=O)CN1CCN(c2cccc(Cl)c2)CC1)c1ccccc1 (centres unmarked)"
  Unit annotation: "%"
  Meas value: 4.34
- Compound: "Cc1ccc2c(c1)C1CN(C)CCC1N2S(=O)(=O)c1cccc(F)c1 (centres unmarked)"
  Unit annotation: "%"
  Meas value: -11.5
- Compound: "COc1cc2c(C(=O)O)c(C)n(C)c2cc1Br"
  Unit annotation: "%"
  Meas value: 20.3
- Compound: "CCOc1ccc(NC(=O)CN2CCN(CC(=O)Nc3ccc(C(=O)OC)cc3)CC2)cc1"
  Unit annotation: "%"
  Meas value: -66.2
- Compound: "COc1ccc(CCCNC(=O)C2CCC(=O)N(CCc3cccc(F)c3)C2)cc1 (centres unmarked)"
  Unit annotation: "%"
  Meas value: -53.1
- Compound: "CC(NC(=O)CN1CCN(S(=O)(=O)c2ccc(Br)cc2)CC1)c1ccccc1 (centres unmarked)"
  Unit annotation: "%"
  Meas value: -36.9
- Compound: "COc1ccc2c(c1)c(C(=O)N1CCN(C)CC1)c(C)n2-c1ccccc1"
  Unit annotation: "%"
  Meas value: -44
- Compound: "CCOC(=O)c1c(NC(=O)CSc2nnc(CNC(=O)c3ccco3)n2C)sc2c1CCC2"
  Unit annotation: "%"
  Meas value: -50.1
- Compound: "CCOc1ccc(NC(=O)CN2CCN(CC(=O)c3ccc(OC)c(OC)c3)CC2)cc1"
  Unit annotation: "%"
  Meas value: -84.4
- Compound: "COc1ccc(-c2csc(-c3cccs3)n2)c(OC)c1"
  Unit annotation: "%"
  Meas value: 15.8

All figures here come from paper PMC4336329.
